target: Free fatty acid receptor 1 (Homo sapiens); test: Agonist activity at human GPR40 expressed in CHO-A12 cells assessed as increase in intracellular calcium flux measured for 100 secs by FLIPR assay; type: functional, cell-based
Sequence (O14842 whole entry): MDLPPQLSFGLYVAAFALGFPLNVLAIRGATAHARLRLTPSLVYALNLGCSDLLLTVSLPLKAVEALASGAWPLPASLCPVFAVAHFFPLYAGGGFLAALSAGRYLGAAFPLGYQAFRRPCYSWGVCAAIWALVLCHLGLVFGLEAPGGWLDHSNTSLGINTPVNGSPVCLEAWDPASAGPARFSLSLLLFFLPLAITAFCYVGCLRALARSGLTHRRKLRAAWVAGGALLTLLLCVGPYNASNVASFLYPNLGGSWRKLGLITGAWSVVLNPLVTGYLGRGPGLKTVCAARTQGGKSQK
pEC50: −log10 of the molar value.
Catalogue of pEC50 readings, one per entry.
assayMetric: pEC50

Cc1ccccc1Cc1ccc(N2CC[C@H](C)[C@H]2CC(=O)O)cc1	6.92
Cc1ccccc1Cc1ccc(N2[C@H](CC(=O)O)CC[C@@H]2C)cc1	5.21
Cc1c(Cl)cccc1Oc1ccc(N2C[C@@H](C(F)(F)F)C[C@H]2CC(=O)O)cc1	7.09
CN(C)c1cccc(Oc2ccc(N3CCC[C@H]3CC(=O)O)cc2)c1	5.89
